What log10(solubility) was measured for each of the following?
conditions_used: 24 °C
Transform log10 | Measure solubility | Unit µM

// log10(solubility) lookup, key: `CN(Cc1ccccc1)N=O`
4.48

// log10(solubility) lookup, key: `CCCN(CCC)N=O`
5.00

// log10(solubility) lookup, key: `N#CSCSc1nc2ccccc2s1`
2.72

// log10(solubility) lookup, key: `c1ccc2cc3ccccc3cc2c1`
-0.61

// log10(solubility) lookup, key: `Clc1cc(Cl)c(-c2cc(Cl)c(Cl)cc2Cl)cc1Cl`
-2.58

----------
conditions_used: 25.0 °C
value_kind: log10 OH rate constant (cm³/molecule/s)
Output spec: single numeric token, no unit.

// log10 OH rate constant (cm³/molecule/s) lookup, key: `FC(F)CC(F)(F)F`
-14.1

// log10 OH rate constant (cm³/molecule/s) lookup, key: `FC(F)(F)CBr`
-13.7

// log10 OH rate constant (cm³/molecule/s) lookup, key: `CCCC(C)=O`
-11.3

// log10 OH rate constant (cm³/molecule/s) lookup, key: C=C(C)C(CC=O)CCC(C)=O (stereo not drawn)
-9.96

// log10 OH rate constant (cm³/molecule/s) lookup, key: `CCOS(=O)(=O)OCC`
-11.7

// log10 OH rate constant (cm³/molecule/s) lookup, key: CC1(C)C2CCC(=O)C1C2 (stereo not drawn)
-10.8

// log10 OH rate constant (cm³/molecule/s) lookup, key: `CC(C)Br`
-12.1

// log10 OH rate constant (cm³/molecule/s) lookup, key: FC(Br)C(F)(F)F (stereo not drawn)
-13.8

----------
What logP was measured for each of the following?
Output spec: single numeric token, no unit.

// logP lookup, key: `Cc1c(Cl)c(Cl)c(C(C)C)c(Cl)c1Cl`
6.8

// logP lookup, key: `CCNC(N)=S`
-0.21

// logP lookup, key: `CCCCCCNC(=S)NC`
2.31

// logP lookup, key: `Clc1c(Cl)c(Cl)c2c(oc3c(Cl)c(Cl)c(Cl)c(Cl)c32)c1Cl`
8.6

// logP lookup, key: `CCNc1nc(N)nc(Cl)n1`
1.15

// logP lookup, key: C1CCC(C2CO2)CC1 (stereo not drawn)
2.43

// logP lookup, key: `Nc1ccc(C=Cc2ccc(N)cc2S(=O)(=O)O)c(S(=O)(=O)O)c1`
-1.7

// logP lookup, key: `NC(N)=Nc1nc(CSCCC(N)=NS(N)(=O)=O)cs1`
-0.64

// logP lookup, key: CCCC(O)CC (stereo not drawn)
1.65

// logP lookup, key: OC(CNC1COCCC1Br)Cn1ccnc1 (stereo not drawn)
-0.17

// logP lookup, key: O=C(O)C1CCN1CC(O)Cn1ccnc1 (stereo not drawn)
-2.02

// logP lookup, key: CCCN1CCOC2c3cccc(O)c3CCC21 (stereo not drawn)
2.22

// logP lookup, key: `C1=C(c2ccccc2)CCNC1`
1.99

// logP lookup, key: `CCCCCCOC(=O)c1ccc(N)cc1`
3.96

// logP lookup, key: `Cc1ccc(-c2ccccc2)cc1`
4.63

// logP lookup, key: `Cc1cccc(OCCN(C)C)c1`
2.05

// logP lookup, key: `Cc1ccc(O[Si]23OCCN(CCO2)CCO3)cc1`
0.08

// logP lookup, key: `Fc1ccc(C2=CCNCC2)cc1`
2.37

// logP lookup, key: O=C(OC1C2C=CC1C=C2)c1ccccc1 (stereo not drawn)
3.03

// logP lookup, key: `OCc1cccc(I)c1`
2.55

// logP lookup, key: `CN(C)C(=O)Nc1ccc(Oc2ccc(Cl)cc2)cc1`
3.7

// logP lookup, key: `COc1cc([N+](=O)[O-])c2ncccc2c1`
1.87

// logP lookup, key: `c1ccc2cc3c(ccc4ccccc43)cc2c1`
5.76

// logP lookup, key: `CCCC(CCC)=NNC(N)=Nc1ccccc1`
2.33

// logP lookup, key: CCCCC(OC(Cc1ccccc1)C(=O)N1CCC(OCOC)CC1)C(=O)NC(CC1CCCCC1)C(O)CC(C(=O)NCCCNC(C)=O)C(C)C (stereo not drawn)
4.3

// logP lookup, key: `ClCc1ccc(Cl)cc1`
3.18

// logP lookup, key: `O=C(OCCO)c1ccccc1`
1.12

// logP lookup, key: OCC1CO1 (stereo not drawn)
-0.95

----------
conditions_used: 25 °C
value_kind: log10 of solubility (log10 of the value in µM)
Transform log10 | Measure solubility | Unit µM

// log10 of solubility lookup, key: `Cc1ccc(CO)cc1`
4.80

// log10 of solubility lookup, key: O=C1C2(Cl)C3(Cl)C4(Cl)C(Cl)(Cl)C5(Cl)C3(Cl)C1(Cl)C5(Cl)C24Cl (stereo unspecified)
0.74

// log10 of solubility lookup, key: CNC1(c2ccccc2Cl)CCCCC1=O.Cl (stereo unspecified)
5.86

// log10 of solubility lookup, key: `CCCCCCCCOC(=O)c1ccccc1C(=O)OCCCCCCCC`
-1.25

// log10 of solubility lookup, key: `CCCCOC(=O)COc1ccc(Cl)cc1Cl`
2.22

// log10 of solubility lookup, key: `CCCCOC(=O)c1ccccc1`
2.52

----------
What logP was measured for each of the following?
Where a SMILES comes first, the peptide text is derived from it.
Output spec: single numeric token, no unit.

// logP lookup, key: `O=C(O)CCCCc1ccccc1`
2.94

// logP lookup, key: `CCOc1ccccc1NCc1cnc2nc(N)nc(N)c2c1C`
2.07

// logP lookup, key: `CC(=O)OCCOCn1cnc2cnc(N)nc21`
-0.61

// logP lookup, key: `COc1ccc(N)c(S(=O)(=O)O)c1`
-3.49

// logP lookup, key: `C=CCNc1ncc(-c2ccncc2)cc1C#N`
2.07

// logP lookup, key: `COP(=S)(OC)Oc1ccc(SC)cc1`
3.74

// logP lookup, key: `CN(C)P(=O)(N1CCCC1)N1CCCC1`
1.88

// logP lookup, key: `COc1ccc2[nH]c3c4ccc(Cl)cc4ncc3c2c1`
4.49

// logP lookup, key: `CC(=O)Nc1ncc2ncn(COCCOC(C)=O)c2n1`
-1.05

// logP lookup, key: `BrC=C(Br)Br`
3.2

// logP lookup, key: `CNS(=O)(=O)Cc1ccc2[nH]cc(CCN(C)C)c2c1`
0.93

// logP lookup, key: `Cc1cc(Cc2c(Cl)cccc2Cl)c(Cl)cc1Cl`
6.73

// logP lookup, key: `c1ccc2c(c1)cc1ccc3cccc4ccc2c1c34`
6.13

// logP lookup, key: `COc1ccc2oc(N(N)CCC#N)nc2c1`
0.98

// logP lookup, key: `CC(=O)OCn1ncc2c(O)ncnc21`
-0.35

// logP lookup, key: `CCCn1ccc(=O)c(O)c1`
-0.17

// logP lookup, key: `Cc1ccccc1OCCNc1ccccc1C(N)=O`
2.94

// logP lookup, key: `c1cnc2c(c1)cc1ccc3cccc4ccc2c1c34`
5.53

// logP lookup, key: `c1ccc2c(c1)ccc1nc3c(ccc4ccccc43)cc12`
5.73

// logP lookup, key: `CC(C)CN=C=S`
2.82

// logP lookup, key: `c1ccc2nc3ccc4ccccc4c3cc2c1`
4.48

// logP lookup, key: CS(=O)CCCOc1ccc2ccccc2c1 (stereo not drawn)
2.42

// logP lookup, key: `Clc1ccc(Cl)c(NC2=NCCN2)c1Cl`
2.46

// logP lookup, key: CCCS(=O)c1ccc2[nH]c(NC(=O)OC)nc2c1 (stereo not drawn)
1.27

// logP lookup, key: `O=[N+]([O-])c1cc(Cl)c(Cl)c(Cl)c1Cl`
3.93

// logP lookup, key: `O=C(CCCN1CCC(O)(c2ccc(Cl)cc2)CC1)c1ccc(F)cc1`
4.3

// logP lookup, key: `O=C(CCl)N1CCOCC1`
-0.6

// logP lookup, key: `Cc1cc(Cl)c(Cc2cc(Cl)ccc2Cl)cc1Cl`
7.48

// logP lookup, key: CC(=O)N[C@H](C(=O)N[C@@H](C)C(N)=O)C(C)C (Ac-Val-Ala-NH2)
-1.14

// logP lookup, key: `CC(=O)CC(C)C`
1.31

// logP lookup, key: `COc1ccc(-c2cc(C#N)c(Cl)nc2C)cc1`
3.38

// logP lookup, key: `COc1c(Cl)c(Cl)cc(Cl)c1Cl`
4.68

// logP lookup, key: `CCCCNC(=S)NCCCC`
2.75

// logP lookup, key: `NC(=O)CCCN=C(c1ccc(Cl)cc1)c1cc(F)ccc1O`
3.06

// logP lookup, key: `CSc1nc(N=[N+]=[N-])nc(NC(C)C)n1`
3

// logP lookup, key: `N[C@@H](CSSC[C@H](N)C(=O)O)C(=O)O`
-5.08

// logP lookup, key: `CCC1CCCCC1`
4.56

// logP lookup, key: `CC(=O)OCN1Cc2ccccc2C1=O`
0.99

// logP lookup, key: C=CCOc1ccccc1OCC(CNC(C)C)OC(=O)C=CC (stereo not drawn)
3.65

// logP lookup, key: CCC1(C2=CCCCCC2)C(=O)NC(=O)N(C)C1=O (stereo not drawn)
2.82

// logP lookup, key: `C=COCCn1cnc2c(=N)n(C)c(=O)[nH]c21`
-0.24

// logP lookup, key: `OCCC(F)(F)C(F)(F)C(F)(F)C(F)(F)C(F)(F)C(F)(F)F`
4.54

// logP lookup, key: `CCOCCOCCOCC`
0.39

// logP lookup, key: `O=c1nc[nH]c2c1ncn2[C@@H]1O[C@H](CO)C[C@@H]1F`
-1.21

// logP lookup, key: COc1cc2nc(N3CCN(C(=O)C4COc5ccccc5O4)CC3)nc(N)c2cc1OC (stereo not drawn)
3.3

// logP lookup, key: `CCCCN(CCOC(C)=O)c1ccc(N=Nc2c(C#N)cc([N+](=O)[O-])cc2C#N)c(C)c1`
5.5

// logP lookup, key: `ON=C1CCCCC1`
0.84

// logP lookup, key: Cc1nc2c(N)ncnc2n1C1OC(CO)CC1F (stereo not drawn)
0.1

// logP lookup, key: `CCOC(=O)c1ccc(OCC)cc1`
3.6

// logP lookup, key: `N=C(N)NN=C(c1ccccc1)c1cccs1`
1.96

// logP lookup, key: `CCN1CCC[C@H]1CNC(=O)c1c(OC)ccc(Br)c1OC`
2.1

// logP lookup, key: `Cn1ccc(=O)c(O)c1`
-0.7

// logP lookup, key: `N#CCCCCCC#N`
0.05
